- target of assay: human SLC6A19 and TMEM27 (Homo sapiens, UniProt Q695T7)
- Construct: expressed in transfected cells
- Sequence (Q695T7 whole entry): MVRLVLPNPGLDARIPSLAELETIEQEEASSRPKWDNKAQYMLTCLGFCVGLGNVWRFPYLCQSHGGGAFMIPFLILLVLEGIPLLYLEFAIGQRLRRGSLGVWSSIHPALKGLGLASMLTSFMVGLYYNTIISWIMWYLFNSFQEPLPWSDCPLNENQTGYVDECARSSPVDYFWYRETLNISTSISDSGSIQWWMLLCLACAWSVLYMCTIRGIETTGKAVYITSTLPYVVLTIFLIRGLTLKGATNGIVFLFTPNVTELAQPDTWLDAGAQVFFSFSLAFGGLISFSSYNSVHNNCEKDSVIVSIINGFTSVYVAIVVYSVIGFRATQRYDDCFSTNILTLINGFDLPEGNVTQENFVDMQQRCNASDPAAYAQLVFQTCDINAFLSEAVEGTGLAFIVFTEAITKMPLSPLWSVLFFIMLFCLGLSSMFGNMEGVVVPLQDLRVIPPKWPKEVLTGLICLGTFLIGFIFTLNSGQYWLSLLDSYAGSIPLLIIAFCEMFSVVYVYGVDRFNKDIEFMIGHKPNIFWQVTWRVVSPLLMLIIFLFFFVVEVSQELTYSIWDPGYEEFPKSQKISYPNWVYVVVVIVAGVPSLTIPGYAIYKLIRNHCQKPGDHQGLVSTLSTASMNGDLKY
- Sequence (Q9HBJ8 15-222 partner): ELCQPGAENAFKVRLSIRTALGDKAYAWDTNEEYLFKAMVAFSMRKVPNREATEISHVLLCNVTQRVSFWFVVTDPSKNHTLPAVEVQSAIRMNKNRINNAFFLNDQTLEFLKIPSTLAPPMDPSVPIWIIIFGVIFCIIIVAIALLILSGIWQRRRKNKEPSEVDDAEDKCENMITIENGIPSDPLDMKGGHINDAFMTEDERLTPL
- run description: Radiolabelled (3H) leucine uptake in CHO cells with doxycycline-inducible expression of human SLC6A19 and TMEM27 (Example B-1)
- Type: cell-based
- assay setup: CHO cells with doxycycline-inducible expression of human SLC6A19 and TMEM27, read-out: SLC6A19_Radioligand Uptake Assay IC50
readout type: IC50 (nM)
Could you give me the number in nM? Just the number is fine.

Asked: State the recorded IC50 for this entry: O=C(NCc1cc2cc(Cl)c(OCc3cscn3)cc2[nH]1)C1(CO)CC1 [Compound 254]
Given back: 294

Asked: Any idea what IC50 was measured for Cc1cc(COc2cc3[nH]c(CNC(=O)NCC(F)F)cc3cc2Cl)on1 [Compound 374] ?
Given back: 412

Asked: Need IC50 of Cn1ncc(COc2cc3[nH]c(CNC(=O)C4CC4)cc3cc2Cl)n1 [Compound 498] , thanks.
Given back: 159

Asked: Fill in: IC50 of C[C@@H]1CCN1C(=O)NCc1cc2cc(Cl)c(OCc3ccon3)cc2[nH]1 [Compound 363] is ___
Given back: 332

Asked: If you can, please state the reported IC50 value of O=C(NCc1cc2cc(Cl)c(OCc3cscn3)cc2[nH]1)[C@H]1CCO1 [Compound 259] .
Given back: 121

Asked: Fill in the blank: the reported IC50 of Cc1cc(COc2cc3[nH]c(CNC(=O)C4(C)CC4)cc3cc2Cl)no1 [Compound 45] is ____.
Given back: 180

Asked: Look at this compound and give its reported IC50. CO[C@@H](C)C(=O)NCc1cc2cc(Cl)c(OCc3cc(C)no3)cc2[nH]1 [Compound 313]
Given back: 125

Asked: Fill in: IC50 of O=C(NCc1cc2cc(Cl)c(OCc3ccon3)cc2[nH]1)C1CCC1 [Compound 488] is ___
Given back: 161
